# Tested on: P388 leukemia ip, CD2F1 mice, survival T/C
# assayRemarks: NCI In Vivo Anticancer Drug Screen. Data for tumor model P388 Leukemia (intraperitoneal) in CD2F1 (CDF1) mice
# measurementParameters: endpoint: median survival time; dose: 400.0 mg/kg/injection; schedule: Q04DX003 (ip); vehicle: saline with Tween-80; higher = longer survival
Inconclusive results and toxic doses are left out.
measurementName: T/C

What value of T/C has been reported for the following compound? O=C(c1cccs1)C1Cc2ccccc2C1=O (stereo not drawn)
90 % of control

What value of T/C has been reported for the following compound? CCSCCC(N)C(=O)O (stereo not drawn)
109 % of control

What value of T/C has been reported for the following compound? S=c1[nH]c2cc(Cl)ccc2s1
109 % of control

What value of T/C has been reported for the following compound? O=C(/C=C/c1ccc(O)cc1)c1ccccc1
105 % of control

What value of T/C has been reported for the following compound? OC(CCl)Cn1nnc2ccccc21 (stereo not drawn)
99 % of control

What value of T/C has been reported for the following compound? CCOC(=O)C(C=O)(NC(=O)c1ccccc1)OCC (stereo not drawn)
95 % of control

What value of T/C has been reported for the following compound? O=C(OCC#CCOC(=O)C(Cl)Cl)C(Cl)Cl
100 % of control

What value of T/C has been reported for the following compound? O=C1c2cccc(Oc3ccccc3)c2C(=O)c2cccc(Oc3ccccc3)c21
90 % of control

What value of T/C has been reported for the following compound? O=C(Nc1ccccc1)c1cc(Cl)ccc1O
100 % of control

What value of T/C has been reported for the following compound? COC(=O)C1=C(C)NC(=O)NC1c1ccc(OC)cc1 (stereo not drawn)
100 % of control

What value of T/C has been reported for the following compound? NC(=S)N/N=C\c1ccc(/C=N/NC(N)=S)cc1
86 % of control

What value of T/C has been reported for the following compound? COc1ccc2ccccc2c1C1=CC(c2ccccc2)C(C(=O)Cc2ccccc2)C(=O)N1 (stereo not drawn)
101 % of control

What value of T/C has been reported for the following compound? NC(=O)NC1CCCCCCC1
95 % of control

What value of T/C has been reported for the following compound? CCCCc1ccc(Sc2cccc3c2C(=O)c2c(Sc4ccc(CCCC)cc4)cccc2C3=O)cc1
86 % of control

What value of T/C has been reported for the following compound? Cc1[nH]cc2c1C(c1ccccc1F)=NCC(=O)N2
101 % of control

What value of T/C has been reported for the following compound? CC(=O)NS(=O)(=O)c1ccc(N=NC2C(=O)N(C(=O)c3cccnc3)N=C2C)cc1 (stereo not drawn)
109 % of control

What value of T/C has been reported for the following compound? C=C(C)C1CC=C(C)CC1 (stereo not drawn)
109 % of control

What value of T/C has been reported for the following compound? CCCCCCCCCCCCCCCCNc1cccc2ccccc12
95 % of control

---

Please provide measured T/C for the entries that follow.
# System: P388 leukemia ip, CD2F1 mice, survival T/C
# assayRemarks: NCI In Vivo Anticancer Drug Screen. Data for tumor model P388 Leukemia (intraperitoneal) in CD2F1 (CDF1) mice
# measurementParameters: endpoint: median survival time; dose: 3.13 mg/kg/injection; schedule: Q01DX009 (ip); vehicle: saline with Tween-80; higher = longer survival
# Experimental: The antitumor activity of compounds was measured in mice bearing transplantable tumors. Survival or tumor size were measured and the results are expressed as the measurement made in the treated group (T) divided by the measurement made in the vehicle treated control group (C). The tumor model used in this assay is P388 Leukemia (intraperitoneal) in CD2F1 (CDF1) mice
Inconclusive results and toxic doses are left out.

What value of T/C has been reported for the following molecule? NC(N)=NC(N)=Nc1ccc(-c2ccc(N=C(N)N=C(N)N)cc2)cc1
108 % of control

What value of T/C has been reported for the following molecule? C#CCNC(=S)N/N=C(\C)c1ccccn1
97 % of control

What value of T/C has been reported for the following molecule? Cn1c(=O)c2[nH]c(C3CCCC3)nc2n(C)c1=O
94 % of control

What value of T/C has been reported for the following molecule? [I][Hg][CH2]C1COCC([CH2][Hg][I])O1.[I][Hg][CH2]C1COCC([CH2][Hg][I])O1 (stereo not given)
109 % of control

What value of T/C has been reported for the following molecule? CN=C(NC)c1ccc(NC(=O)/C=C\c2ccc(C(=O)Nc3ccc(C(=NC)NC)cc3)cc2)cc1
172 % of control
